test system: A431 cell; assay: Cell Proliferation Inhibition EGFR Assay (SRB method); format: cell-based, homo sapient; conditions: Homo sapiens, A-431; A431 cells, 72 hours exposure, Sulforhodamine B; read-out: IC50 (A431)
VALUE_TYPE: IC50 (nM)

>>> df
                                   compound  result_value
0  CCN(CC)CCN1CCc2[nH]c(/C=C3\C(=O)Nc4cccc(Br)c43)c(C)c2C1=O [Example 30]           330

[I] Cc1c(/C=C2\C(=O)Nc3cccc(-c4c(F)cccc4F)c32)[nH]c2c1C(=O)N(CCN1CCCCC1)CC2 [Example 63]
[II] Cc1c(/C=C2\C(=O)Nc3c(Br)cc(F)cc32)[nH]c2c1C(=O)N(CCN1CCCCC1)CC2 [Example 90]
[III] Cc1c(/C=C2\C(=O)Nc3ccc(F)cc32)[nH]c2c1C(=O)N(CCN1CCCC1)CC2 [Example 13]
Arrange these 3 compounds in increasing order of IC50. In plain terms: list the labels in the order you were asked to.
II, I, III
(II: 270 nM, I: 530 nM, III: 1310 nM)

---

Tested on: A431 cell
Test: Cell Proliferation Inhibition EGFR Assay (SRB method)
Assay type: cell-based, homo sapient
Conditions: Homo sapiens, A-431; A431 cells, 72 hours exposure, Sulforhodamine B; read-out: IC50 (A431)
Protocol: The following in vitro assay may be used to determine the level of activity and effect of different compounds of the present invention on the proliferation inhibition (cell toxic) of […] growth factor receptor (EGFR) high expressing homo […] cancer cell-A431 cell. […] Compounds IC50 on tested cells are calculated by the data of inhibition rates of serial concentrations of the tested compounds. • a. […] Novastar Plate reader (BMG Labtech, Catalog No. 700 0081) • r. […]
VALUE_TYPE: IC50 (nM)

Use these answered entries as a reference point.
>>> print(df.to_string())
                                   compound  value_type  value_units  result_value
0  Cc1c(/C=C2\C(=O)Nc3cccc(CCO)c32)[nH]c2c1C(=O)N(CCN1CCCC1)CC2 [Example 75]        IC50           nM          1680
1  Cc1c(/C=C2\C(=O)Nc3cc(N)c(F)cc32)[nH]c2c1C(=O)N(CCN1CCCC1)CC2 [Example 14]        IC50           nM         10700
2  CCN(CC)CCN1CCc2[nH]c(/C=C3\C(=O)Nc4ccc(NC=O)cc43)c(C)c2C1=O [Example 33]        IC50           nM           840

[1] Cc1c(/C=C2\C(=O)Nc3cccc(-c4cccc(F)c4F)c32)[nH]c2c1C(=O)N(CCN1CCCC1)CC2 [Example 59]
[2] CCN(CC)CCN1CCc2[nH]c(/C=C3\C(=O)Nc4ncnc(Nc5ccc(F)c(Cl)c5)c43)c(C)c2C1=O [Example 12]
From the recorded data, which exceeds the other in IC50: 1 or 2 ? Kindly give the label for the entry you pick.
1
(1: 2190 nM, 2: 67 nM)

[a] CCN(CC)CCN1CCc2[nH]c(/C=C3\C(=O)Nc4cc(NC=O)c(F)cc43)c(C)c2C1=O [Example 8]
[b] CCN(CC)CCN1CCc2[nH]c(/C=C3\C(=O)Nc4ccc(-c5ccc(OC)cc5)cc43)c(C)c2C1=O [Example 38]
From the recorded data, which exceeds the other in IC50: a or b ? Kindly give the label for the entry you pick.
b
(b: 3890 nM, a: 370 nM)

[a] COCC(=O)Nc1cc2c(cc1F)/C(=C/c1[nH]c3c(c1-c1ccc(F)cc1)C(=O)NCC3)C(=O)N2 [Example 67]
[b] CCN(CC)CCN1CCc2[nH]c(/C=C3\C(=O)Nc4ccc(OC)cc43)c(C)c2C1=O [Example 35]
[c] Cc1c(/C=C2\C(=O)Nc3ccc(Cl)cc32)[nH]c2c1C(=O)N(CCN1CCOCC1)CC2 [Example 16]
Arrange these 3 compounds in increasing order of IC50. In plain terms: list the labels in the order you were asked to.
a, b, c
(a: 2030 nM, b: 4350 nM, c: 10200 nM)

[1] CCN(CC)CCN1CCc2[nH]c(/C=C3\C(=O)Nc4cccc(C5CCNCC5)c43)c(C)c2C1=O [Example 31]
[2] CCN(CC)CCN1CCc2[nH]c(/C=C3\C(=O)Nc4c(NC=O)cc(F)cc43)c(C)c2C1=O [Example 5]
[3] CCN(CC)CCN1CCc2[nH]c(/C=C3\C(=O)Nc4cccc(-c5cccc(Cl)c5F)c43)c(C)c2C1=O [Example 36]
Task field, ranking: reported IC50, descending order. In plain terms: list the labels in the order you were asked to.
3, 2, 1
